- Tested on: mitochondrial ATP production on non-small cell lung carcinoma cell lines NCI-H460
- test.details: Mitochondrial ATP analysis (Cell Titer Glo) in NCI-H460 cells
- Assay type: cell-based
- protocol.conditions: 1-hour incubation, with sodium iodoacetate (100 μM), concentration inhibiting 50% of mitochondrial ATP production, read-out: IC50 (mito ATP)
- Protocol: In order to evaluate the inhibitory activity of the all compounds, an in vitro assay was developed which read out is directly linked to mitochondrial complex 1 inhibition. […] Cellular ATP contents were measured in presence of either glycolysis inhibitor (sodium iodocetate) and/or mitochondrial inhibitors (F0F1-ATPase inhibitor: oligomycin or mitochondrial uncoupler: FCCP) to determine the ATP production part relying either on glycolytic or on mitochondrial metabolism. […]
pIC50: −log10 of the molar value.
assay.readout: pIC50

compound	pIC50
COc1ccc(C(O)COc2ccc(-c3csc(-c4ccc(OCC(O)c5ccc(OC)c(OC)c5)cc4)n3)cc2)cc1OC (single isomer, unassigned) [Compound I-25]	6.71

A. COc1ccc(C(O)COc2ccc(-c3nc(-c4ccc(OC(C)(C)C(O)c5ccc(OC)c(OC)c5)cc4)cs3)cc2)cc1OC (single isomer, unassigned) [Compound I-67]
B. COc1ccc(C(O)COc2ccc(-c3coc(-c4ccc(OCC(O)c5ccc(OC)c(OC)c5)cc4)n3)cc2)cc1OC (single isomer, unassigned) [Compound I-14]
Hi, I'm comparing A with B and wondering which one has the bigger number for pIC50. Any idea? Write down the label of the entry you select.
A
(A: 6.81, B: 6.17)
